Origin of measurements: PubChem BioAssay (NCI)

EXPERIMENTAL DETAILS: NCI Yeast Anticancer Drug Screen. Data for the wt1 strain (AID 149)
RUN CONDITIONS: S. cerevisiae wt1 strain (SPY 50644) growth inhibition; at 11.0 µM
About 79,000 compounds went through this panel and 15% of them were active in at least one assay; those are over-represented in the sample as a whole. Activity calls are given as the source filed them. No stated cut-off is given here; in the data, active means growth inhibition above about 70%; inactive means the rest.
// classify into active, inactive

COc1cc(C(C)(C)C)cc(OC)c1C(O)(c1c(OC)cc(C(C)(C)C)cc1OC)c1c(OC)cc(C(C)(C)C)cc1OC | active
COc1ccc(/C(=N/O)c2ccccc2C2=Nc3ccccc3C(NCc3ccccc3)O2)cc1C (stereo not given) | inactive
Cc1c(N=Nc2ccc(Cl)cc2)c(C)n(C2OC(CO)C(O)C(O)C2O)c(=S)c1C#N (stereo not given) | inactive

Query block: Name the outcome recorded for O=S(=O)(CCC[C@H]1[C@@H](CCOCc2ccccc2)C2CCCN1O2)c1ccccc1 (stereo not given in full) in the assay.
Result block: inactive

Query block: I'd appreciate the recorded outcome for CCCCCCCCCCCCCCCCCN from this test.
Result block: inactive

Query block: Outcome logged for O=C(Cc1ccccc1)c1ccc(O)cc1 in this assay:
Result block: inactive

Query block: Name the outcome recorded for O=C(O)CN(CCNC(=O)OCC1c2ccccc2-c2ccccc21)CCNC(=O)OCC1c2ccccc2-c2ccccc21 in the assay.
Result block: inactive

Query block: Test call, this compound: CN(C)CCNC(=O)c1cccc2nc3c4ccccc4c4ccccc4c3nc12
Result block: inactive

Query block: Outcome logged for O=C1c2ccc(O)cc2C(=O)c2c(O)ccc(O)c21 in this assay:
Result block: active

Query block: // return assay outcome for C=Cc1c(C)c(O)cc2c1-c1ccc(O)c(C)c1CC2
Result block: inactive

Query block: # fetch the recorded call for O=C1C=CC(=O)N1c1ccc(Br)cc1Cl here
Result block: active

Query block: Hey, what did the test say about O=CC(=C(I)I)c1ccccc1 ?
Result block: active
